# Test system: p38-alpha
# Construct: gene MAPK14
# measurementSetup: concentration: 1 μM, replicates: in singlicate; n = 1;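 note: KINOMEscan kinase panel screen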
Listing of entries alongside the reported %Inh.

compound: Cn1cc(-c2ccc3c(c2)CCN3C(=O)Cc2cccc(Cl)c2)c2c(N)ncnc21
%Inh, %: 0
--
compound: Oc1cc(Nc2ccnc3cc(I)ccc23)ccc1F
%Inh, %: 4
--
compound: Nc1ncnc2c1nc(-c1ccccc1)n2-c1ccccc1
%Inh, %: 12
--
compound: C[C@@H]1CC[C@@H](C(=O)Nc2ccccc2)CN1c1cc(-c2ccc3c(N)n[nH]c3c2)nc(N)n1
%Inh, %: 28
--
compound: CC(C)(C)c1ccc2nccc(Nc3cccc(O)c3)c2c1
%Inh, %: 0
--
compound: O=C(Nc1cccc(-c2nn3ccccc3c2-c2ccnc(Nc3cccc(C(F)(F)F)c3)n2)c1)c1c(F)cccc1F
%Inh, %: 17
--
compound: CCn1c(-c2nonc2N)nc2c(C#CC(C)(C)O)nc(OC[C@H](N)c3ccccc3)cc21
%Inh, %: 0
--
compound: C[C@@H](Oc1cc(-n2cnc3cc(-c4ccnc(NCCS(C)(=O)=O)c4)ccc32)sc1C(N)=O)c1ccccc1Cl
%Inh, %: 0
--
compound: Cl.Cl.NCC(NCc1ccc(-c2ccnc3[nH]ccc23)s1)c1ccccc1 (stereo not drawn)
%Inh, %: 27
--
compound: c1ccc(-c2cnc3nccnn23)cc1
%Inh, %: 0
--
compound: CCn1c(-c2nonc2N)nc2c(C#CC(C)(C)O)ncc(OCCCCN)c21.O=C(O)C(F)(F)F.O=C(O)C(F)(F)F
%Inh, %: 0
--
compound: COc1cccc(NC(=O)NC2CCN(c3ccnc(Nc4cc(OC)c(OC)c(OC)c4)n3)C2)c1 (stereo not drawn)
%Inh, %: 24
--
compound: COc1cccc(C(=O)Nc2cccc(Oc3ccc4nc(NC(=O)C5CC5)cn4n3)c2)c1
%Inh, %: 15
--
compound: O=C(O)C(F)(F)F.O=C(O)C(F)(F)F.O=c1[nH]ccc2nc(N[C@@H]3CCCNC3)nc(Nc3ccc(S(=O)(=O)N4CCOCC4)cc3)c12
%Inh, %: 0
--
compound: O=C(Nc1n[nH]c2nc(-c3ccc(O)cc3)ccc12)C1CC1
%Inh, %: 0
--
compound: Cc1ccc(C(=O)N2CC[C@@H](O)C2)cc1-n1c(C)cc(OCc2ccc(F)cc2F)c(Br)c1=O
%Inh, %: 100
--
compound: COc1ccc(Nc2nccc(NCCNC(=O)c3cc4ccccc4s3)n2)cc1
%Inh, %: 13
--
compound: CCS(=O)(=O)c1ccc(OC)c(Nc2nccc(-c3c(-c4cccc(NC(=O)c5c(F)cccc5F)c4)nn4ncccc34)n2)c1
%Inh, %: 99.9
--
compound: O=C(Nc1ccccc1F)NC1CCN(c2ccnc(Nc3ccc(F)cc3)n2)CC1
%Inh, %: 32
--
compound: Cl.c1ccc(-c2ccc3c(Nc4ccc5[nH]ncc5c4)ccnc3c2)nc1
%Inh, %: 8
--
compound: Cc1ccc(C(=O)Nc2ccc(Nc3ccnc4cc(-c5nccs5)ccc34)cc2O)cc1.Cl
%Inh, %: 0
--
compound: O=C(Nc1cccc(-c2nn3ncccc3c2-c2ccnc(Nc3ccccc3)n2)c1)c1c(F)cccc1F
%Inh, %: 99.3
--
compound: COc1cc(Nc2nccc(N3CCC(NC(=O)c4cc5ccccc5s4)C3)n2)cc(OC)c1OC (stereo not drawn)
%Inh, %: 3
--
compound: COc1ccc(-c2coc3ccc(-c4nnc(SCc5ccc(OC)c(C(F)(F)F)c5)o4)cc23)cc1
%Inh, %: 0
--
compound: O=C(Nc1n[nH]c2cc(-c3ccoc3)ccc12)C1CC1
%Inh, %: 0
--
compound: CN(C)Cc1ccc(-c2ccc3c(Nc4ccc(Oc5ccccn5)cc4)ccnc3c2)o1
%Inh, %: 0
--
compound: FC(F)(F)c1ccc(/C=C/c2cncnc2Nc2ccc3[nH]c(Cc4ccccc4)nc3c2)cc1
%Inh, %: 0
--
compound: Clc1ccc(-c2nn3ncccc3c2-c2ccnc(Nc3ccc4c(c3)OCCO4)n2)cc1
%Inh, %: 99.7
--
compound: COc1ccc(CNC(=O)NC2CCN(c3ccnc(Nc4ccc(F)cc4)n3)CC2)cc1
%Inh, %: 19
--
compound: CCCCc1nn2ncccc2c1-c1ccnc(Nc2ccc(N3CCN(C)CC3)cc2)n1
%Inh, %: 94.2
--
compound: CN(c1ccc(NC(=O)Nc2cc(C(F)(F)F)ccc2F)cc1)c1ccnc(Nc2ccc(S(N)(=O)=O)cc2)n1
%Inh, %: 9
--
compound: COc1cccc(-c2ccc3c(NC(=O)C4CC4)n[nH]c3n2)c1
%Inh, %: 23
--
compound: Cc1occc1-c1ncc(OC[C@@H](N)Cc2c[nH]c3ccccc23)cc1-c1ccc2[nH]nc(C)c2c1.O=C(O)C(F)(F)F
%Inh, %: 89

====

# Test system: CHEK2
# measurementSetup: concentration: 1 μM, replicates: in singlicate; n = 1
Listing of entries alongside the reported %Inh.

givenSmiles: CN(c1ccc(NC(=O)Nc2cc(C(F)(F)F)ccc2F)cc1)c1ccnc(Nc2ccc(S(N)(=O)=O)cc2)n1
%Inh: 20%
--
givenSmiles: O=C(Nc1cccc(Oc2ccc3nc(NC(=O)C4CC4)cn3n2)c1)c1ccccc1C(F)(F)F
%Inh: 11%
--
givenSmiles: Cc1cccc(NC(=O)Nc2ccc(Oc3ncnc4ccn(C)c34)cc2)c1
%Inh: 0%
--
givenSmiles: COc1ccc(-c2coc3ccc(-c4nnc(SCc5ccc(OC)c(C(F)(F)F)c5)o4)cc23)cc1
%Inh: 18%

====

Listing of entries alongside the reported %Inh.
# Tested on: NEK4
# measurementSetup: concentration: 1 μM, replicates: in singlicate; n = 1

molecule: CC(C)(C)c1ccc2nccc(Nc3cccc(O)c3)c2c1
unitAbbreviation: %
%Inh: 0
//
molecule: CN1CCN(Cc2cccc(-c3ccc4c(Nc5ccc(Oc6ccccc6)cc5)ccnc4c3)c2)CC1
unitAbbreviation: %
%Inh: 0
//
molecule: COc1cc(Nc2nccc(N3CCC(NC(=O)c4cc5ccccc5s4)C3)n2)cc(OC)c1OC (centres unmarked)
unitAbbreviation: %
%Inh: 13
//
molecule: CN(C)Cc1ccc(-c2ccc3c(Nc4ccc(Oc5ccccn5)cc4)ccnc3c2)o1
unitAbbreviation: %
%Inh: 21
//
molecule: COc1ccc(Nc2nccc(N3CCC(NC(=O)Nc4cccc(OC)c4)C3)n2)cc1 (centres unmarked)
unitAbbreviation: %
%Inh: 0

====

Listing of entries alongside the reported %Inh.
# Tested on: EPHA5
# measurementSetup: concentration: 1 μM, replicates: in singlicate; n = 1

compound: CC(=O)N1CCN(c2ccc(Nc3nccc(-c4sc(C(C)C)nc4-c4cccc(NS(=O)(=O)c5cccc(Cl)c5)c4)n3)cn2)CC1
%Inh: 99.6%
--
compound: CC(C)(C)c1ccc2nccc(Nc3cccc(O)c3)c2c1
%Inh: 37%
--
compound: C[C@@H]1CC[C@@H](C(=O)Nc2ccccc2)CN1c1cc(-c2ccc3c(N)n[nH]c3c2)nc(N)n1
%Inh: 0%
--
compound: Nc1n[nH]c2cnc(-c3ccccc3)cc12
%Inh: 0%
--
compound: CN(C)Cc1ccc(-c2ccc3c(Nc4ccc(Oc5ccccn5)cc4)ccnc3c2)o1
%Inh: 0%
--
compound: CN(c1ccc(NC(=O)Nc2cc(C(F)(F)F)ccc2F)cc1)c1ccnc(Nc2ccc(S(N)(=O)=O)cc2)n1
%Inh: 97.5%
--
compound: Cc1ccc(C)c(NC(=O)NC2CCN(c3ccnc(Nc4ccc(F)cc4)n3)C2)c1 (centres unmarked)
%Inh: 0%
--
compound: Cc1ccc(C(=O)Nc2ccc(Nc3ccnc4cc(-c5nccs5)ccc34)cc2O)cc1.Cl
%Inh: 0%

====

Listing of entries alongside the reported %Inh.
# Tested on: FYN
# measurementSetup: concentration: 1 μM, replicates: in singlicate; n = 1

givenSmiles: COc1ccc(CNC(=O)NC2CCN(c3ccnc(Nc4ccc(F)cc4)n3)CC2)cc1
%Inh: 8%
--
givenSmiles: COc1cccc(C(=O)Nc2cccc(Oc3ccc4nc(NC(=O)C5CC5)cn4n3)c2)c1
%Inh: 84%
--
givenSmiles: CCn1c(-c2nonc2N)nc2c(C#CC(C)(C)O)ncc(OCCCCN)c21.O=C(O)C(F)(F)F.O=C(O)C(F)(F)F
%Inh: 0%
--
givenSmiles: C[C@@H]1CC[C@@H](C(=O)Nc2ccccc2)CN1c1cc(-c2ccc3c(N)n[nH]c3c2)nc(N)n1
%Inh: 25%

====

# System: EPHB3
# measurementSetup: concentration: 1 μM, replicates: in singlicate; n = 1
I would appreciate it if you labelled entries Satisfied when %Inh is 4% or higher, otherwise Not satisfied.

compound: O=C(Nc1cccc(-c2nn3ccccc3c2-c2ccnc(Nc3cccc(C(F)(F)F)c3)n2)c1)c1c(F)cccc1F [GSK292658]
labelValue: Satisfied
--
compound: Nc1ncc(-c2ccc3nccc(-c4ccncc4)c3c2)cc1S(=O)(=O)N1CCOCC1 [GSK1627798]
labelValue: Not satisfied
--
compound: O=C(Nc1n[nH]c2cc(-c3ccoc3)ccc12)C1CC1 [SB-738481]
labelValue: Not satisfied
--
compound: CNC(=O)c1ccccc1Nc1nc(Nc2ccc(N3CCOCC3)cc2)ncc1Cl.Cl [GSK1576028]
labelValue: Not satisfied
--
compound: Cl.NC(=O)c1cccc(Nc2nccc(Nc3ccc(Oc4c(Cl)cccc4Cl)c(Cl)c3)n2)c1 [GW659009]
labelValue: Not satisfied
--
compound: CCS(=O)(=O)c1ccc(OC)c(Nc2nccc(-c3c(-c4cccc(NC(=O)c5c(F)cccc5F)c4)nn4ncccc34)n2)c1 [GSK326180]
labelValue: Satisfied
--
compound: Cn1cc(-c2[nH]c3cc(NC(=O)[C@H](N)C4CCCCC4)cc4c3c2C=NNC4=O)cn1
labelValue: Not satisfied
--
compound: CC(=O)N1CCN(c2ccc(Nc3nccc(-c4sc(C(C)C)nc4-c4cccc(NS(=O)(=O)c5cccc(Cl)c5)c4)n3)cn2)CC1 [GSK1660437]
labelValue: Not satisfied
--
compound: Cl.Cl.NCC(NCc1ccc(-c2ccnc3[nH]ccc23)s1)c1ccccc1 (stereo not shown) [GSK1321565]
labelValue: Satisfied
--
compound: COc1ccc(-c2coc3ccc(-c4nnc(SCc5ccc(OC)c(C(F)(F)F)c5)o4)cc23)cc1
labelValue: Satisfied
--
compound: Cn1cc(-c2ccc3c(c2)CCN3C(=O)Cc2cccc(Cl)c2)c2c(N)ncnc21 [GSK2606590]
labelValue: Satisfied
--
compound: c1ccc(Oc2ccc(Nc3ccnc4cc(-c5ccc(CNCCN6CCOCC6)o5)ccc34)cc2)nc1 [GW567145]
labelValue: Not satisfied
--
compound: Cn1cc(-c2ccc3c(c2)CCN3C(=O)Cc2cccc(F)c2)c2c(N)ncnc21 [GSK2603358]
labelValue: Satisfied
--
compound: FC(F)(F)c1ccc(/C=C/c2cncnc2Nc2ccc3[nH]c(Cc4ccccc4)nc3c2)cc1 [GW709199]
labelValue: Satisfied

Just for reference, paper PMC5540273 is where these values come from.
